- protocol text: Metabolic stability in rat liver microsomes assessed as parent compound remaining; note: time not given here
- Type: ADME, Microsome
Stability listing for selected compounds.
# unit: % | format: bare number

| cpd smiles | Stability (%) |
| --- | --- |
| Nc1ncncc1-c1ccnc2c1cnn2-c1ccc(F)cc1F | 100 |
| Nc1ncncc1-c1ccnc2c1cnn2-c1c(F)cc(F)cc1F | 87 |
| Nc1ncncc1-c1ccnc2c1cnn2-c1ccc(F)cc1C(F)(F)F | 94 |
| Cc1ccncc1-c1ccnc2c(-c3ccccc3)csc12 | 3 |
| Nc1ccncc1-c1ccnc2c1cnn2-c1ccc(F)cc1 | 0.2 |
| Cc1ccncc1-c1ccnc2c1cnn2-c1ccc(F)cc1F | 18 |

"COc1ccccc1-n1ncc2c(-c3cnccc3C)ccnc21" yielded Stability of 1

"Cc1ccncc1-c1cccc2c(-c3ccccc3)csc12" yielded Stability of 2

"Fc1ccc(-n2ncc3c(-c4cncnc4NCC(F)(F)F)ccnc32)cc1" yielded Stability of 40

"Cc1ccncc1-c1ccnc2c1cnn2-c1ccc(F)cc1" yielded Stability of 43

"Cc1ccncc1-c1ccnc2c1cnn2-c1ccc(F)c(Cl)c1" yielded Stability of 37

The measurements presented in this section are drawn from ChEMBL document CHEMBL5223109.
